System: Escherichia coli
protocol_text: Antimicrobial activity against Escherichia coli ATCC 8739 by paper disk method
Format: functional
experimental_endpoint: MIC (µg/mL)
Give the number; µg/mL is assumed, so skip it.

Guide cases for MIC, answers given:
# molecule, measured_on, experimental_endpoint, val
records = [
    ("O=c1cc(-c2ccc(O)cc2)oc2cc(O)cc(O)c12 [APIGENIN]", "Escherichia coli", "MIC", 110),
    ("COc1cc(-c2cc(=O)c3c(O)c(OC)c(O)cc3o2)ccc1O [JACEOSIDINE]", "Escherichia coli", "MIC", 125),
    ("COc1ccc(-c2cc(=O)c3c(O)c(OC)c(OC)cc3o2)cc1OC", "Escherichia coli", "MIC", 250),
]

Ask | What value of MIC has been recorded for this entry: COc1ccc(-c2cc(=O)c3c(O)c(OC)c(OC)cc3o2)cc1O [EUPATORIN]
Reply | 188

====

Test system: Escherichia coli
protocol_text: Antimicrobial activity against Escherichia coli ATCC 8739 by paper disk method
Type: functional
Recorded MBC values for a group of compounds are listed next.
Hi! Could you send only the number? It should be in µg/mL, unit omitted.

# structure_smiles, unit_spec, MBC
records = [
    ("O=c1cc(-c2ccc(O)cc2)oc2cc(O)cc(O)c12", "µg/mL", 438),
    ("COc1cc(-c2cc(=O)c3c(O)c(OC)c(O)cc3o2)ccc1O", "µg/mL", 250),
]

Continue with the next compound.
Ask | Can you share its MBC? I mean this compound: COc1ccc(-c2cc(=O)c3c(O)c(OC)c(OC)cc3o2)cc1OC
Reply | 500
